Measured values drawn from paper PMC2229387 for this set.

Test system: cone cGMP-gated channel
Test details: Inside-out patch clamp of cone outer segment membrane, cGMP-activated current
Type: biochemical, striped bass cone outer segment membrane patches
Run conditions: read-out: Cone K 1/2, before exposure to EDTA/EGTA solution (cGMP); SD, n = 8
Measure: pEC50
# pEC50 = -log10(concentration in molar units)

Ask | Identify the reported pEC50 for the following entry. Nc1nc2c(ncn2[C@@H]2O[C@@H]3COP(=O)(O)O[C@H]3[C@H]2O)c(=O)[nH]1
Reply | 4.06

----------
System: rod cGMP-gated channel
Type: biochemical, tiger salamander rod outer segment membrane patches
Run conditions: read-out: Rod K 1/2, with added calmodulin (200 nM) (cGMP); SD, n = 9
Measure: EC50 (µM)
State just the number; it will be interpreted in µM.

Ask | # assay system rod cGMP-gated channel: give EC50 of Nc1nc2c(ncn2[C@@H]2O[C@@H]3COP(=O)(O)O[C@H]3[C@H]2O)c(=O)[nH]1
Reply | 37.3
